- measuredOn: PI3Kγ enzyme (Homo sapiens, UniProt P48736)
- Sequence (P48736 whole entry): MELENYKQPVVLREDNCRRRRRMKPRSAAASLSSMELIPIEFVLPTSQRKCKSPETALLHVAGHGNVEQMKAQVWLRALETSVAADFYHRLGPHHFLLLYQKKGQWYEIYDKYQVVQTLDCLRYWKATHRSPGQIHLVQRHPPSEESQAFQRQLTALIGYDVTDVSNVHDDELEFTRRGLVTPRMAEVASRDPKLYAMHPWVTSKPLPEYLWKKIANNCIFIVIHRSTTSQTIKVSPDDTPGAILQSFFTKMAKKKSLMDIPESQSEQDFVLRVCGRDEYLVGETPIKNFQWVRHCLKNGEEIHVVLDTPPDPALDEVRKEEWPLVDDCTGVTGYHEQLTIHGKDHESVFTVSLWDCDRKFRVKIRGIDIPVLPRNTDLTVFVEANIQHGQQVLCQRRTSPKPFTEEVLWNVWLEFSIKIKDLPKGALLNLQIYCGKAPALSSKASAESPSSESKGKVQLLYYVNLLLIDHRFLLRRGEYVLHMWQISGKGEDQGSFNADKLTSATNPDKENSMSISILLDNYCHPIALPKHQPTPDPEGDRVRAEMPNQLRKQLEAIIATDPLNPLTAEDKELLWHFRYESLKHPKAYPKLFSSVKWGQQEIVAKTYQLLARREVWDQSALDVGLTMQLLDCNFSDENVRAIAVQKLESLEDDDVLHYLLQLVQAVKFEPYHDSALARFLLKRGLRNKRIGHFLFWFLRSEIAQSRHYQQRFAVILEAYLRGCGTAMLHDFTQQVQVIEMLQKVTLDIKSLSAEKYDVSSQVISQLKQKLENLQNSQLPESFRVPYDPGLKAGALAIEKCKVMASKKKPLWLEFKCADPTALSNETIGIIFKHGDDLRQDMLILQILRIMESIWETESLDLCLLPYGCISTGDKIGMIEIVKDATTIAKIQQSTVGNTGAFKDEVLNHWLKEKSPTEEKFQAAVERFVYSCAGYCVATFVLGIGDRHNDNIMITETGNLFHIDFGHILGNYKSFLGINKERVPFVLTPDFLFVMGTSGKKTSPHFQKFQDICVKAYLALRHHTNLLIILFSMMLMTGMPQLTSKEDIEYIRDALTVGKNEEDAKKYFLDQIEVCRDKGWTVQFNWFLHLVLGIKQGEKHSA
- procedureText: Adapta universal kinase assay, anti-PI3Kγ activity
- Type: biochemical
- experimentalParameters: read-out: % of inhibition against PI3Kγ enzyme, point 1
Assignment: determine reported inhibition at 100 µM for the given molecules.
Give bare numbers, in %.

moleculeSmiles	inhibition at 100 µM [%]
O=C(CNc1ccc(S(=O)(=O)Nc2ccccn2)cc1)Nc1nc2ccccc2s1	0

Please give inhibition at 100 µM for each item listed below.
1. O=C(CNc1ccc([N+](=O)[O-])cc1)Nc1nc2ccccc2s1
2. O=C(CN1CCOCC1)Nc1nc2ccccc2s1
3. O=C(CN1CCN(CC(=O)Nc2nc3ccccc3s2)CC1)Nc1nc2ccccc2s1
4. O=C(CN1CCN(c2ccccc2O)CC1)Nc1nc2ccccc2s1
5. O=C(CNc1ccc(I)cc1)Nc1nc2ccccc2s1
6. O=C(CN1CCN(c2ccc([N+](=O)[O-])cc2)CC1)Nc1nc2ccccc2s1

Key:
[0, 0, 2, 28, 0, 6]
